Where do these numbers come from? They come from ChEMBL document CHEMBL3433997.

# testedOn: Hexose transporter 1 (Plasmodium falciparum)
# test: ST_JUDE_LEISH: Cytotoxicity at 2uM final concentration against transgenic Leishmania Mexicana promastigotes LmPfHT that are glucose transport deficient and complemented with the Plasmodium falciparum hexose transporter. Activity is measured by DNA content using SYBR green in vitro
# Format: functional
resultType: inhibition
The reply should consist of the numeric value with the unit placed after it.

May I ask what inhibition has been recorded for O=C(Nc1cc(Oc2ccc(O)cc2)cc([N+](=O)[O-])c1)c1cc(-c2ccc(F)cc2)no1 ? -1.36%

Consider the compound shown here: Cc1c(Oc2ccc(-n3ccnc3)cc2)ncnc1N1CCC2(CC1)CNCc1ccccc12 What is its recorded inhibition? 8.76%

Quick one: inhibition for O=c1nc2[nH]c3ccccc3n2c(=O)[nH]1 ? 2.18%

Value lookup for inhibition; key = Cc1n[nH]c2cc(Nc3nccc(Nc4ccc(Oc5ccccc5)cc4)n3)ccc12 7.61%

Would you mind telling me what inhibition value was observed for Cc1cc(N[C@@H](Cc2ccccc2)C(=O)NC2CCCC2)nc(NCCc2cccs2)n1 ? 2.88%

Record request: inhibition value, item CN(C)c1ccc(C2(c3ccccc3)N=C(N)N(CCCc3ccccc3)C2=O)cc1 (stereo not given) 3.4%

inhibition for CCN1CCN(CCCNc2ccnc3cc(Cl)ccc23)CC1 ? 2.24%

Please report the recorded inhibition for O=C(CCc1c[nH]cn1)Nc1cccc(-c2ccc(-c3nc4cc(F)ccc4[nH]3)s2)c1 . 7.95%

# inhibition lookup, item Cc1ccc(Nc2nccc(NCC(O)c3cccc(C(F)(F)F)c3)n2)cc1 (stereo not given) 4%

Please report the recorded inhibition for Cc1cccc(/C=C/C(=O)NC2CCC(N3CCC(c4ccccc4C)CC3)CC2)c1 (stereo not given) . -2.79%

Given the compound O=[N+]([O-])c1ccc(Nc2nc(NCc3ccccc3)nc(N/N=C/c3ccccc3[N+](=O)[O-])n2)cc1 , what is its reported inhibition? -0.41%

I am curious: what inhibition value has been reported for CC(CN(C)C)C(=O)Nc1cccc(-c2ccc(-c3nc4cc(C(F)(F)F)ccc4[nH]3)cc2)c1 (stereo not given) ? 9.17%

Record request: inhibition value, item COc1ccc(-c2cccc(NC(=O)c3ccc(C#N)cc3)c2)cc1CN1CCCN(C)CC1 2.59%

Data request, read-out inhibition, for COc1ccc2nccc([C@@H](O)CN3CCC(NCc4ccc5cccc(O)c5n4)CC3)c2n1 11.5%

Need inhibition of O=C(NCCCN1CCC(N2CCCCC2)CC1)c1ccc(N2CCOc3ccccc32)s1 , thanks. 0.98%

So what's the measured inhibition for this one? CC(C)CCCC(C)(C)NC[C@@H](O)[C@H](Cc1ccccc1)NC(=O)c1cccc(CCC2CC2)c1 4.54%

Would you kindly share the measured inhibition for N#Cc1cccc(C(=O)Nc2cccc(-c3ccc(C(=O)NCCCN4CCOCC4)cc3)c2)c1 ? 5.61%

For Cc1c[nH]c2cc(/C=C/C(=O)NC3CCC(CCN4CCc5ccc(C#N)cc5CC4)CC3)ccc12 (stereo not given) , what is its reported inhibition? 1.75%

Value lookup for inhibition; key = CC1(C)N=C(N)N=C(N)N1OCc1cc2ccccc2cc1CON1C(N)=NC(N)=NC1(C)C 1.86%

Which inhibition is reported for this compound? Clc1ccc(-c2cnc3ccc(NCc4ccncc4)nn23)cc1 0.84%
